# target: ZIKV-induced caspase 3/7 activity in hNPCs
# test-summary: Caspase 3/7 activity assay, ZIKV-infected hNPCs
# Type: cell-based
# conditions: ZIKV-infected hNPCs; read-out: Caspase 3 (IC50, uM) NPCs
Could you please report measured IC50 for the items listed next?
The reply should contain only the number, in µM.

## Input Give its IC50 value. Item: CC(=O)Nc1ccc([C@H](C)C(=O)Nc2ncc(C(C)C)s2)cc1
## Output 19.5

## Input Okay, and N#C/C(=C\c1ccc(O)c(O)c1)C(=O)Nc1ccccc1 ?
## Output 17.3

## Input Okay, and COc1cccc(NC(=O)/C=C/c2ccc(Cl)cc2)c1 ?
## Output 2.91

## Input Okay, and OCc1ccc(-c2ccc(-c3ccc(CO)s3)o2)s1 ?
## Output 14.6
